# TEST NAME: Cyanopropyl (CN) chromatography, logkw from two gradients with DryLab
# Format: physicochemical
# RUN CONDITIONS: Cyanopropyl chromatography, pH 7.4; short and long gradient
Kindly supply the reported logkw, Table S5 values for the records listed here.

Endpoint output: logkw, Table S5 of Cc1cc(S(=O)(=O)Nc2nnc(C)c(=O)[nH]2)c(SCc2cccc3ccccc23)cc1Cl . Value? 1.850

Endpoint output: logkw, Table S5 of Cc1cc(S(=O)(=O)Nc2nnc(Cc3ccccc3)c(=O)[nH]2)c(SCc2cc3c(cc2Cl)OCO3)cc1Cl . Value? 2.130

Endpoint output: logkw, Table S5 of Cc1cc(S(=O)(=O)Nc2nnc(-c3ccccc3)c(=O)[nH]2)c(SCc2ccc(C(F)(F)F)cc2)cc1Cl . Value? 2.010

Endpoint output: logkw, Table S5 of O=C(Nc1ccc(Cl)cc1)c1cc(S(=O)(=O)Nc2nncc(-c3ccc(C(F)(F)F)cc3)n2)c(SCc2ccccc2)cc1Cl . Value? 2.642

* * *

# TEST NAME: C18 chromatography (RP-HPLC), chromatographic hydrophobicity index
# Type: physicochemical
# RUN CONDITIONS: pH 7.4, 40 °C, acetonitrile gradient
ASSAY METRIC: CHIC18

Endpoint output: CHIC18 of O=S(=O)(Nc1cccc2cccnc12)c1ccc(-n2cccc2)cc1 [Compound 2] . Value? 97.50

Endpoint output: CHIC18 of COc1ccc(-c2cnnc(NS(=O)(=O)c3cc(C(=O)Nc4ccc(C)cc4)c(Cl)cc3SCc3ccccc3)n2)cc1 [Compound 18] . Value? 82.80

Endpoint output: CHIC18 of COc1ccc(NC(=O)c2cc(S(=O)(=O)Nc3nncc(-c4ccc(OC)cc4)n3)c(SCc3ccccc3)cc2Cl)cc1 [Compound 20] . Value? 77.20

Endpoint output: CHIC18 of Cc1cc(S(=O)(=O)Nc2nncc(-c3cccc(F)c3)n2)c(SCc2ccc(C(F)(F)F)cc2)cc1Cl [Compound 24] . Value? 87.50

Endpoint output: CHIC18 of Cc1ccnc(NS(=O)(=O)c2ccc(-n3cccc3)cc2)n1 [Compound 1] . Value? 56.70

Endpoint output: CHIC18 of O=S(=O)(Nc1ccc(Cl)cc1)c1ccc(-n2cccc2)cc1 [Compound 6] . Value? 94.70

Endpoint output: CHIC18 of O=S(=O)(Nc1cccc2nsnc12)c1ccc(-n2cccc2)cc1 [Compound 5] . Value? 82.90

Endpoint output: CHIC18 of Cc1ccc2cccc(NS(=O)(=O)c3ccc(-n4cccc4)cc3)c2n1 [Compound 4] . Value? 104.80

Endpoint output: CHIC18 of Cc1cc(S(=O)(=O)Nc2nnc(C)c(=O)[nH]2)c(SCc2cccc3ccccc23)cc1Cl [Compound 9] . Value? 72.30

* * *

# TEST NAME: C8 chromatography (RP-HPLC), logkw from two gradients with DryLab
# Format: physicochemical
# RUN CONDITIONS: C8 chromatography, pH 7.4; short and long gradient
Kindly supply the reported logkw, Table S4 values for the records listed here.
The response must contain the number and no unit.

Endpoint output: logkw, Table S4 of CC(=O)NS(=O)(=O)c1cc(C)c(Cl)cc1SCc1cccc2ccccc12 . Value? 3.655

Endpoint output: logkw, Table S4 of COc1ccc(-c2cnnc(NS(=O)(=O)c3cc(C)c(Cl)cc3SCc3ccc(C(F)(F)F)cc3)n2)cc1 . Value? 4.260

Endpoint output: logkw, Table S4 of Cc1ccc(NC(=O)c2cc(S(=O)(=O)Nc3nncc(-c4ccc(C(F)(F)F)cc4)n3)c(SCc3ccccc3)cc2Cl)cc1 . Value? 4.490

Endpoint output: logkw, Table S4 of O=C(Nc1ccc(Cl)cc1)c1cc(S(=O)(=O)Nc2nncc(-c3ccc(C(F)(F)F)cc3)n2)c(SCc2ccccc2)cc1Cl . Value? 4.530
